Each record here notes measured abundance fitness.
B1: Formin-binding protein 4, residues 200 to 261; numbered along this chain, Q8N3X1 (parent)
chain: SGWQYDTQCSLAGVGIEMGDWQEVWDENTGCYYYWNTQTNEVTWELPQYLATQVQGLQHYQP

Variants of: B1
Measurement protocol: abundance fitness (aPCA) (normalised: wild type 0, dead -1); higher = more abundant; growth selection in yeast, the domain comes from the species named
Assay context: Homo sapiens
Measurement name: abundance fitness

    mutation   measurement_name  readout_number
 0       S1G  abundance fitness           0.116
 1      G15D  abundance fitness           0.132
 2      Q38K  abundance fitness           0.138
 3      V14Y  abundance fitness           0.365
 4      T39W  abundance fitness          -0.568
 5      N36C  abundance fitness          -0.236
 6      Q55L  abundance fitness          -0.184
 7      Q61D  abundance fitness          -0.034
 8      G15K  abundance fitness          -0.073
 9      G56S  abundance fitness          -0.031
10      E17G  abundance fitness          -0.346
11      W25P  abundance fitness          -0.376
12      Y60M  abundance fitness           0.177
